inhibition at 1 µM overview
Biological target: ABHD6 (Mus musculus, UniProt Q8R2Y0)
Sequence (Q8R2Y0 whole entry): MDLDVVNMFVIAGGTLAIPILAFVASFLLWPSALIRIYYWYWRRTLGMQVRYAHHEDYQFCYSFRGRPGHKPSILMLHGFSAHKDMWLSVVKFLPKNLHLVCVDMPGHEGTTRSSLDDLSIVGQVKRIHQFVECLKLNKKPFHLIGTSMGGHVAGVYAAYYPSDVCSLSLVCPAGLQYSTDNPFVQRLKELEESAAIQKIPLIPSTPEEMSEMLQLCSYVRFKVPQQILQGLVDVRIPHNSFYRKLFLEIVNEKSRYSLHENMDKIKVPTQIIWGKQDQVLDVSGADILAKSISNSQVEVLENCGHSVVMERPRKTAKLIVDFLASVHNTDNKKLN
Assay: In vitro competitive activity-based protein profiling (Table 2, % inhibition at 1 μM)
Format: biochemical
Details: read-out: % Inhibition at 1 μM ABHD6

CC(=O)N1CCN(c2cc(C(C)C)ccc2CN2CC3CN(C(=O)OC(C(F)(F)F)C(F)(F)F)CC3C2)CC1 (stereo not drawn): 25 to 75%
CCN1CCN(c2c(C)cccc2CN2CC3CN(C(=O)OC(C(F)(F)F)C(F)(F)F)CC3C2)CC1 (stereo not drawn): < 25%
CC1COCCN1c1cc(Cl)ccc1CN1CC2CN(C(=O)OC(C(F)(F)F)C(F)(F)F)CC2C1 (stereo not drawn): < 25%
CC1COCCN1c1ccc(CN2CC3CN(C(=O)OC(C(F)(F)F)C(F)(F)F)CC3C2)c(Cl)c1 (stereo not drawn): < 25%
O=C(OC(C(F)(F)F)C(F)(F)F)N1CC2CN(Cc3cccc(Cl)c3N3CCC(F)CC3)CC2C1 (stereo not drawn): < 25%
CCn1ncc(CN2CC3CN(C(=O)OC(C(F)(F)F)C(F)(F)F)CC3C2)c1C(=O)NCC1CCOCC1 (stereo not drawn): 25 to 75%
O=C(ON1C(=O)CCC1=O)N1CC2CN(Cc3ccc(Cl)cc3N3Cc4cccnc4C3)CC2C1 (stereo not drawn): 25 to 75%
O=C(OC(C(F)(F)F)C(F)(F)F)N1CC2CN(Cc3cccc(C(F)(F)F)c3N3CCOCC3)CC2C1 (stereo not drawn): < 25%
Cc1cc(CN2CC3CN(C(=O)OC(C(F)(F)F)C(F)(F)F)CC3C2)n(C2CCCCC2)n1 (stereo not drawn): 25 to 75%
O=C(OC(C(F)(F)F)C(F)(F)F)N1CC2CN(Cc3cc(CN4CCCCC4)ccc3OC(F)(F)F)CC2C1 (stereo not drawn): < 25%

Input line: Identify the measured inhibition at 1 µM of O=C(OC(C(F)(F)F)C(F)(F)F)N1CC2CN(Cc3ccc(Cl)cc3N3CCn4ncnc4C3)CC2C1 (stereo not drawn) for ABHD6 (Mus musculus, UniProt Q8R2Y0).
Output line: 25 to 75%

Input line: Identify the measured inhibition at 1 µM of O=C(OC(C(F)(F)F)C(F)(F)F)N1CC2CN(Cc3ccc(N4CCOCC4)cc3C(F)(F)F)CC2C1 (stereo not drawn) for ABHD6 (Mus musculus, UniProt Q8R2Y0).
Output line: < 25%

Input line: Identify the measured inhibition at 1 µM of O=C(ON1C(=O)CCC1=O)N1CC2CN(Cc3ccccc3-c3ccccc3)CC2C1 (stereo not drawn) for ABHD6 (Mus musculus, UniProt Q8R2Y0).
Output line: 25 to 75%

Input line: Identify the measured inhibition at 1 µM of O=C(OC(C(F)(F)F)C(F)(F)F)N1CC2CN(Cc3c(N4CC5COCC5C4)cccc3C(F)(F)F)CC2C1 (stereo not drawn) for ABHD6 (Mus musculus, UniProt Q8R2Y0).
Output line: 25 to 75%

Input line: Identify the measured inhibition at 1 µM of Cn1cc(CN2CC3CN(C(=O)OC(C(F)(F)F)C(F)(F)F)CC3C2)c(C2CCN(S(C)(=O)=O)CC2)n1 (stereo not drawn) for ABHD6 (Mus musculus, UniProt Q8R2Y0).
Output line: < 25%

----------
Molecular target: MAGL (Mus musculus)
Sequence (O35678 whole entry): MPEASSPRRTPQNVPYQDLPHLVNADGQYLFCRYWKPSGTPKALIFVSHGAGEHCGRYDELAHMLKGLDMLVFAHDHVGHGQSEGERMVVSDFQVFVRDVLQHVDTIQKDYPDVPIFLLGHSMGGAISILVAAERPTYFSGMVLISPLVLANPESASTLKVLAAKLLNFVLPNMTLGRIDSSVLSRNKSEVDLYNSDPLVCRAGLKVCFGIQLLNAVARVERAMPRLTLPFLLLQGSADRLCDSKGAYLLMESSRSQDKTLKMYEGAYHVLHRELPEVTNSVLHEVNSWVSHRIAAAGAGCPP
Experiment: biochemical
Settings: mouse; in vitro competitive ABPP; read-out: Mouse (IC50 value, nM) MAGL
recorded.endpoint: IC50

O=C(OC(C(F)(F)F)C(F)(F)F)N1CC2CN(Cc3ccc(Cl)cc3N3CC4COCC4C3)CC2C1 (stereo not drawn) [Example 208]: 100 to 1000 nM
CC(C)c1ccc(CN2CC3CN(C(=O)OC(C(F)(F)F)C(F)(F)F)CC3C2)c(N2CCCC2)c1 (stereo not drawn) [Example 23]: 100 to 1000 nM
CCn1ncc(CN2CC3CN(C(=O)OC(C(F)(F)F)C(F)(F)F)CC3C2)c1C(=O)NC1CC1 (stereo not drawn) [Example 74]: < 100 nM
O=C(ON1C(=O)CCC1=O)N1CC2CN(Cc3ccc(N4CCOCC4)cc3F)CC2C1 (stereo not drawn) [Example 79]: 1000 to 10000 nM
O=C(OC(C(F)(F)F)C(F)(F)F)N1CC2CN(Cc3cccc(Cl)c3N3CC[C@H](CF)C3)CC2C1 (stereo partly drawn) [Example 173]: < 100 nM
O=C(ON1C(=O)CCC1=O)N1CC2CN(Cc3cccc(-c4ccccc4)c3)CC2C1 (stereo not drawn) [Example 88]: < 100 nM
CC(C)c1cc(CN2CC3CN(C(=O)OC(C(F)(F)F)C(F)(F)F)CC3C2)n(C2CCOCC2)n1 (stereo not drawn) [Example 62]: < 100 nM
Cc1cccc(CN2CC3CN(C(=O)OC(C(F)(F)F)C(F)(F)F)CC3C2)c1N1CCCCC1 (stereo not drawn) [Example 30]: 100 to 1000 nM

Input line: IC50 lookup needed for O=C(OC(C(F)(F)F)C(F)(F)F)N1CC2CN(Cc3ccc(C(F)F)cc3N3CCCC3)CC2C1 (stereo not drawn) [Example 205] , thanks.
Output line: < 100 nM

Input line: IC50 lookup needed for CC1COCCN1c1cc(F)ccc1CN1CC2CN(C(=O)OC(C(F)(F)F)C(F)(F)F)CC2C1 (stereo not drawn) [Example 16] , thanks.
Output line: < 100 nM

Input line: IC50 lookup needed for O=C(OC(C(F)(F)F)C(F)(F)F)N1CC2CN(Cc3ccc(C(=O)N4CCCCC4)c(OC(F)(F)F)c3)CC2C1 (stereo not drawn) [Example 192] , thanks.
Output line: 100 to 1000 nM

Input line: IC50 lookup needed for CC1COCCN1c1ccc(CN2CC3CN(C(=O)ON4C(=O)CCC4=O)CC3C2)c(Cl)c1 (stereo not drawn) [Example 102] , thanks.
Output line: 100 to 1000 nM

Input line: IC50 lookup needed for CCn1cc(CN2CC3CN(C(=O)OC(C(F)(F)F)C(F)(F)F)CC3C2)c(-c2ccc(N3CCCC3)cc2)n1 (stereo not drawn) [Example 67] , thanks.
Output line: < 100 nM

Input line: IC50 lookup needed for O=C(OC(C(F)(F)F)C(F)(F)F)N1CC2CN(Cc3cc(CN4CCOCC4)cc(OC(F)(F)F)c3)CC2C1 (stereo not drawn) [Example 183] , thanks.
Output line: 100 to 1000 nM

Input line: IC50 lookup needed for O=C(OC(C(F)(F)F)C(F)(F)F)N1CC2CN(Cc3ccc(Cl)cc3N3CCC4(CCNC4=O)CC3)CC2C1 (stereo not drawn) [Example 38] , thanks.
Output line: < 100 nM
